test: The drug is tested on Providencia rettgeri strain: DSM1131 for biotransformation. The drug concentrations were measured before and after a 12-h incubation by liquid-chromatography-coupled mass spectrometry (LC–MS)
Format: ADME
Set-up: dose 2 uM, timepoint 0 vs 12 hours
cond: 2 µM

# molecule, Bacterial Biotransformation
measured = [
    ("COc1cc2c(c(OC)c1OC)-c1ccc(OC)c(=O)cc1[C@@H](NC(C)=O)CC2", "Compound NOT metabolized"),
    ("COc1ccccc1N1CCN(CC(O)COc2cccc3ccccc23)CC1 (centres undefined)", "Compound NOT metabolized"),
    ("O=c1[nH]c2ccccc2n1CCCN1CCC(n2c(=O)[nH]c3cc(Cl)ccc32)CC1", "Compound NOT metabolized"),
]

* * *

cond: bacteroides fragilis, 12 h, 2 µM
Description: The drug is tested on Bacteroides fragilis strain: 3397 (T10) for biotransformation. The drug concentrations were measured before and after a 12-h incubation by liquid-chromatography-coupled mass spectrometry (LC–MS)
measure: Bacterial Biotransformation

Example compounds with recorded Bacterial Biotransformation:
# compound, Bacterial Biotransformation
records = [
    ("CC#CCn1c(N2CCC[C@@H](N)C2)nc2c1c(=O)n(Cc1nc(C)c3ccccc3n1)c(=O)n2C [LINAGLIPTIN]", "Compound metabolized"),
    ("OC(Cn1cncn1)(Cn1cncn1)c1ccc(F)cc1F [FLUCONAZOLE]", "Compound metabolized"),
    ("CCCC(=O)Nc1ccc(OCC(O)CNC(C)C)c(C(C)=O)c1 (stereo not drawn) [ACEBUTOLOL]", "Compound NOT metabolized"),
    ("CCOC(=O)[C@H](CCc1ccccc1)N[C@@H](C)C(=O)N1[C@H](C(=O)O)C[C@H]2CCCC[C@@H]21 [TRANDOLAPRIL]", "Compound metabolized"),
]

IN: Look up and state reported Bacterial Biotransformation for Br.CN(C)CCCC1(c2ccc(F)cc2)OCc2cc(C#N)ccc21 (stereo not drawn) [CITALOPRAM HYDROBROMIDE]
OUT: Compound NOT metabolized

IN: Output Bacterial Biotransformation of CC(C)NCC(O)COc1ccc(CCOCC2CC2)cc1 (stereo not drawn) [BETAXOLOL]
OUT: Compound NOT metabolized

IN: Give the reported value of Bacterial Biotransformation for this record: CN(C)CCOC(C)(c1ccccc1)c1ccccn1.O=C(O)CCC(=O)O (stereo not drawn) [DOXYLAMINE SUCCINATE]
OUT: Compound NOT metabolized

IN: # return recorded Bacterial Biotransformation for input CC1=C(CC(=O)O)c2cc(F)ccc2/C1=C\c1ccc([S+](C)[O-])cc1 (stereo not drawn)
OUT: Compound NOT metabolized

* * *

cond: bacteroides fragilis, 12 h, 2 µM
Description: The drug is tested on Bacteroides fragilis strain: DS-208 for biotransformation. The drug concentrations were measured before and after a 12-h incubation by liquid-chromatography-coupled mass spectrometry (LC–MS)
measure: Bacterial Biotransformation

Solved cases below.
# compound, Bacterial Biotransformation
data = [
    ("C#C[C@]1(O)CC[C@H]2[C@@H]3CCC4=Cc5oncc5C[C@]4(C)[C@H]3CC[C@@]21C", "Compound metabolized"),
    ("CCN(C)C(=O)Oc1cccc([C@H](C)N(C)C)c1.O=C(O)C(O)C(O)C(=O)O [RIVASTIGMINE TARTRATE]", "Compound NOT metabolized"),
    ("CC(N)C12CC3CC(CC(C3)C1)C2 (centres undefined)", "Compound NOT metabolized"),
    ("COc1ccc2[nH]c([S+]([O-])Cc3ncc(C)c(OC)c3C)nc2n1 (centres undefined)", "Compound metabolized"),
    ("CC(O)(CS(=O)(=O)c1ccc(F)cc1)C(=O)Nc1ccc(C#N)c(C(F)(F)F)c1 (centres undefined) [BICALUTAMIDE]", "Compound NOT metabolized"),
]

IN: Specify reported Bacterial Biotransformation for the compound shown: `CNC(=C[N+](=O)[O-])NCCSCc1csc(CN(C)C)n1`
OUT: Compound metabolized

IN: For `Nc1nnc(-c2cccc(Cl)c2Cl)c(N)n1` , write its Bacterial Biotransformation.
OUT: Compound NOT metabolized

IN: Specify reported Bacterial Biotransformation for the compound shown: `O=C(O)CCc1nc(-c2ccccc2)c(-c2ccccc2)o1`
OUT: Compound metabolized

IN: Identify measured Bacterial Biotransformation corresponding to CCN(CC)CCNC(C(=O)OCCC(C)C)c1ccccc1.Cl.Cl (centres undefined)
OUT: Compound NOT metabolized
